- System: CCRIS mutagenicity, Ames/micronucleus/aberration tests
- assay_text: CCRIS mutagenicity studies
- test_context: Test System: AMES SALMONELLA TYPHIMURIUM; Strain/Indicator: TA1537; Metabolic Activation: NONE; Method: PREINCUBATION
- Text: The CCRIS database contains chemical records with carcinogenicity, mutagenicity, tumor promotion, and tumor inhibition test results. It was developed by the National Cancer Institute (NCI). Data are derived from studies cited in primary journals, current awareness tools, NCI reports, and other sources. Test results have been reviewed by experts in carcinogenesis and mutagenesis. CCRIS provides historical information from the years 1985 - 2011. It is no longer updated. […]
The source made the active and inactive calls. The rule behind the calls is not given here.
measure_name: mutagenic call

>  <compound>
CC(=O)NS(=O)(=O)c1ccc(N)cc1

>  <mutagenic call>
inactive; negative

$$$$
>  <compound>
C=C1CC(=O)O1

>  <mutagenic call>
inactive; negative

$$$$
>  <compound>
C[C@H]1SC[C@@H](C(=O)N[C@@H](Cc2cnc[nH]2)C(=O)N2CCC[C@H]2C(N)=O)NC1=O

>  <mutagenic call>
inactive; negative

$$$$
>  <compound>
O=C(O)C(F)(F)C(F)(Cl)C(F)(F)C(F)(Cl)C(F)(F)C(F)(Cl)C(F)(F)Cl (stereo not drawn)

>  <mutagenic call>
inactive; negative

$$$$
>  <compound>
C=CC(=O)OC

>  <mutagenic call>
inactive; negative

$$$$

Hey, can you go through the list below and give me mutagenic call for every item?
1. [O]=[Ce]=[O]
2. CCCCCCCCCCCCO
3. O=C1c2c(Br)c(Br)c(Br)c(Br)c2C(=O)N1CCN1C(=O)c2c(Br)c(Br)c(Br)c(Br)c2C1=O
4. O=C(O)C(=O)O
5. Cc1ccccc1OP(=O)(Oc1ccccc1)Oc1ccccc1
6. O=C=Nc1ccc(Cc2ccc(N=C=O)cc2)cc1

1. inactive; negative
2. inactive; negative
3. inactive; negative
4. inactive; negative
5. inactive; negative
6. inactive; negative

Looking for the measured mutagenic call of CCCCCCCCCCCCCCCCC1CO1 (stereo not drawn) , can you help?
inactive; negative
